assay-method-text: purified protein yield per well (BCA); higher = higher soluble expression
Let's look at some sequences and their measured purified protein yield per well.
measured-metric: purified protein yield per well (µg)

{"columns": ["seq", "qualifier-operator", "measured"],
 "data": [
  ["ADNPYERGPNPTQASIAASRGTFATAEVSVGGGNGFAAAKIYYPTDTSQGTFGAIAIVPGYTATWAAEGAWMGPWLASFGFVVIGIDTLSRNDFDTARGTQLLAALDYLTQRSSVRSRVDASRLAVMGHSMGGGGAISAALRRPSLKAAVGLAPFSPSQGTSGMRVPSMLLAGQRDGTVTPSSVRNLYNAIPATTEKAYLELTGAGHGFPTSANSVMMRKVIPWLKIFVDQDTRYQQFLCPLVDWTGITSYQSSCPLIPGGSTGTTYNLVNSSGKCADVNAASQVNGAALLLWTCHTNPNQRWTETSAKELRVYDNPKCMDAGAAQQGTRVTINSCSGGGSQKWTVNANGTVTNDLSGRCLGAAGGATTDNTPLVVASCDGSPGQQWTKQS [TEP093]", "=", 166],
  ["PWTSYSAGATVYYPRTATAPFSAIVFMQPYTGTQAMNYAWGPWFASHGIVYVNYDSTTTLDTVDSRATQQMNAINALKNENNRSASPLYRKLDTSRIGVMGWSMGGGASWINSANSSIKTAMSLAGHSLTAVSIYKSGRYTKCPTMIFSGLLDTTYLGGMGQSEGVYRNIPSGIAKIHYEVRSAGHMAWGSPTSASSNVAKIALAFQKTFLDGDTRWAAYLTQPSDASTWNTASLPSTGGTTPDYPWWYWWR [TEP072]", "<", 25]
]}
